Biological target: GST-Rok-C97-191 (Bacillus subtilis subsp. subtilis str. …, UniProt O34857 97-191)
Sequence: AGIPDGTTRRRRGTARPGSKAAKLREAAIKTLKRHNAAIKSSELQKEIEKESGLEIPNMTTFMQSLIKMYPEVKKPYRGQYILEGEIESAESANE
Assay: protein binding microarray; high values mean tight binding
Settings: protein: recombinant; tags: GST (pTH5325, pDEST15-Magic modified); dsDNA, one strand shown
Over roughly 33,000 sequences, “e-score” has its median near -0.038; the highest 2% begin near 0.33. Many of the other results were omitted from the sample, so the highest values are more common in it than they were.
Binary call on binding signal with cut-off 0.2 E-score: strictly below means Fulfilled, and equality or higher means Not fulfilled.

Below are worked cases with known answers.
# residue string, class name
rows = [
    ("TATATAGA", "Not fulfilled"),
    ("CATATATG", "Not fulfilled"),
    ("AAGCGGAC", "Fulfilled"),
    ("ACTAAGGA", "Not fulfilled"),
    ("GTAAATTA", "Not fulfilled"),
]

Dear colleague, could you confirm whether binding signal of ACCCTTAT falls below 0.2 E-score? Thanks.
Fulfilled

Dear colleague, could you confirm whether binding signal of TATATATA falls below 0.2 E-score? Thanks.
Not fulfilled

---

Target: GST-Rok-C97-191 (Bacillus subtilis subsp. subtilis str. …, UniProt O34857 97-191)
Sequence: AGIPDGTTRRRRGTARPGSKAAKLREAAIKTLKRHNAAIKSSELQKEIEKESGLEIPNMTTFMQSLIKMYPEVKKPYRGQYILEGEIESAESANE
Experiment: protein binding microarray; high values mean tight binding
Settings: protein: recombinant; tags: GST (pTH5325, pDEST15-Magic modified); dsDNA, one strand shown
Over roughly 33,000 sequences, “e-score” has its median near -0.038; the highest 2% begin near 0.33. What follows is part of a selection rich in the highest values, with near analogues and random picks from the rest.
measure name: binding signal (E-score)
Numbers only, in E-score.

# residue string, endpoint unit, binding signal
records = [
    ("AGGGCACA", "E-score", -0.171),
    ("GAGTATTA", "E-score", 0.187),
    ("ACAAAACG", "E-score", -0.11),
    ("CACTACAA", "E-score", 0.173),
    ("GTCTATCA", "E-score", -0.0797),
]

Hello, I would appreciate it if you could give binding signal for each entry below.
1. CCCACTAG
2. AAGTATTA

[0.0169, 0.349]

---

Biological target: GST-Rok-C97-191 (Bacillus subtilis subsp. subtilis str. …, UniProt O34857 97-191)
Sequence: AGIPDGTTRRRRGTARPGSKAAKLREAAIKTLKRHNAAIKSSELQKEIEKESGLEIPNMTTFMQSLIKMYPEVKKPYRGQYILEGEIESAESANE
Assay: protein binding microarray; Rok is a gene silencer of Bacillus subtilis; high values mean tight binding
Details: protein: recombinant; tags: GST (pTH5325, pDEST15-Magic modified); dsDNA, one strand shown
Whole data set: some 33,000 sequences, median “e-score” near -0.038, cut for the highest 2% near 0.33. This excerpt belongs to a sample that is enriched for the highest values.
Decision: binding signal compared against 0.1 E-score; not below it gives Met, below it gives Not met.

Below are worked cases with known answers.
# residue string, target under test, class name
records = [
    ("AACACAAA", "GST-Rok-C97-191 (Bacillus subtilis subsp. subtilis str. …, UniProt O34857 97-191)", "Met"),
    ("CGATCGAA", "GST-Rok-C97-191 (Bacillus subtilis subsp. subtilis str. …, UniProt O34857 97-191)", "Met"),
    ("TAGATACA", "GST-Rok-C97-191 (Bacillus subtilis subsp. subtilis str. …, UniProt O34857 97-191)", "Met"),
    ("AAGATAAC", "GST-Rok-C97-191 (Bacillus subtilis subsp. subtilis str. …, UniProt O34857 97-191)", "Met"),
    ("AAGATACA", "GST-Rok-C97-191 (Bacillus subtilis subsp. subtilis str. …, UniProt O34857 97-191)", "Met"),
]

Then this sequence:
Could you verify whether the entry CGATTATC shows binding signal of no less than 0.1 E-score?
Not met
